These entries and their values trace back to PubChem BioAssay.

system-name: Epidermal growth factor receptor (Homo sapiens) (UniProt P00533)
Sequence (P00533 whole entry, looked up): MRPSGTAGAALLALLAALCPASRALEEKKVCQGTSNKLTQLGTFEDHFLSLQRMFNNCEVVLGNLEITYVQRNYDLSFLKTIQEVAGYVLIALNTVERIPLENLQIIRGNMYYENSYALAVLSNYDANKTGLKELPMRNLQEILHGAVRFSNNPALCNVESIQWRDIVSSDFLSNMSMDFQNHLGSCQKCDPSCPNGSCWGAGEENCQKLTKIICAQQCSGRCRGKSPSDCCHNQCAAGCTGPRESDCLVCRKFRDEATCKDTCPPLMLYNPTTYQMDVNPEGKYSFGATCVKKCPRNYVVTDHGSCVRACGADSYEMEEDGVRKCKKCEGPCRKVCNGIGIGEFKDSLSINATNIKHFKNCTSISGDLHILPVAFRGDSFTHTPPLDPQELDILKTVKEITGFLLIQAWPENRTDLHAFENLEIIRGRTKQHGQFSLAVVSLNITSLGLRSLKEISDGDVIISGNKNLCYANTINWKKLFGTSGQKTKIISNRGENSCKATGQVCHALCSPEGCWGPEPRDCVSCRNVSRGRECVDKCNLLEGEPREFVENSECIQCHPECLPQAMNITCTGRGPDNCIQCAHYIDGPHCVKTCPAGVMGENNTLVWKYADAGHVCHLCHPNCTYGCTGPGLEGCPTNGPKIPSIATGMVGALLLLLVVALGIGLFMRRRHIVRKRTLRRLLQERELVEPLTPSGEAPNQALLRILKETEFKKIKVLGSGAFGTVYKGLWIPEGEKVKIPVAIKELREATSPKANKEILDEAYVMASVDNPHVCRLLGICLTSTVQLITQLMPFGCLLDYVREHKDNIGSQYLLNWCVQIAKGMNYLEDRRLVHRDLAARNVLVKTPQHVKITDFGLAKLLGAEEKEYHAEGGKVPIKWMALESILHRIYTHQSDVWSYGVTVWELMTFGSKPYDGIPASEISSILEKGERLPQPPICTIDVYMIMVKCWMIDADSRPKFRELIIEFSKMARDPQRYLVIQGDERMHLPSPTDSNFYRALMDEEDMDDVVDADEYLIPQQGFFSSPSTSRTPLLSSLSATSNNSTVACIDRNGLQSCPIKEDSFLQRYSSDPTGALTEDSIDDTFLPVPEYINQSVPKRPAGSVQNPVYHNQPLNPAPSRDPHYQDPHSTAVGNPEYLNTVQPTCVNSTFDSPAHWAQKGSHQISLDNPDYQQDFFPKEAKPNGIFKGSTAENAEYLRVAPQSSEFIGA
assay-overview: EGFR binders on small-molecule microarrays, primary screen, biochemical, small-molecule microarray, 635 nm fluorescence (AID 1104);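 also: score merges 667 nm emission intensity with spot signal to noise over triplicate slides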
details: EGFR binding, higher = more signal
metric: composite z-score

C=CCC(OC(C)=O)[C@@H]1[C@@H](N(Cc2ccc(-c3ccccc3)cc2)C(=O)Cc2ccc(F)cc2)c2cc(OCCCO)ccc2N1C(=O)c1ccc2ccccc2n1 (stereo partly drawn)	-0.294
COc1cc(C(O)C2C=CC3C(=O)N(c4ccccc4)C(=O)C3N2Nc2ccc(C#N)cc2)cc(OC)c1OC (stereo not drawn)	-0.209
C=CCC(OC(C)=O)[C@@H]1[C@@H](N(Cc2cccc3ccccc23)C(=O)c2cccc3ccccc23)c2cc(OCCCO)ccc2N1C(=O)c1ccc2ccccc2n1 (stereo partly drawn)	-0.0538

---

assay-overview: binders of probe aHhip on microarray, primary screen, stem cell growth factor project, biochemical, small-molecule microarray, fluorescence 635/667 (AID 1087);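 also: score merges spot fluorescence at 667nm with spot signal to noise ratio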
details: higher = more signal
The compounds listed here are annotated with their composite z-score.
metric: composite z-score

COC(=O)c1ccc(OC)c(/C=C\CC(OC(C)=O)c2ccccc2)c1 (configuration not stated)	0.206
COC(=O)C[C@H]1O[C@]2(C(=O)N(Cc3ccccc3)c3ccc(NC(C)=O)cc32)[C@@H](C)[C@@H]1[Si](C)(C)c1ccc(OC)cc1	-0.273
Cc1ccc([C@H]2C(C(=O)O)=C[C@@H](C)N2S(=O)(=O)c2ccc(C)cc2)cc1	-0.201
COc1ccc(CCNC(=O)[C@@]2(c3ccc([N+](=O)[O-])cc3)CC(=O)N(CC34CC5CC(CC(C5)C3)C4)[C@@H]2c2ccc(CO)cc2)cc1	0.0848
CC(C)CNC(=O)[C@@H]1c2ccccc2C(=O)N(Cc2cc(C(F)(F)F)cc(C(F)(F)F)c2)[C@H]1c1ccc(CO)cc1	0.224
COc1ccc([Si](C)(C)[C@@H]2[C@@H](CC(=O)N(CCO)Cc3ccccc3)O[C@]3(C(=O)N(C)c4ccccc43)[C@H]2C)cc1	0.411
COCCOC(=O)N1C(=O)[C@@]2(c3cc(C#CCNC(N)=O)ccc31)[C@H](c1ccccc1OCCO)N1[C@H](c3ccccc3)[C@H](c3ccccc3)OC(=O)[C@H]1[C@@H]2C(N)=O	-0.284

---

assay-overview: E. coli DRC41 culture turbidity changes, primary screen, E. coli filamentation inducer project, strain DRC41, OD650, 48 h (AID 1152);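 also: E. coli MC1000 strain DRC41 lacking acrAB efflux pump and sulA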
details: E. coli DRC41 (acrAB sulA), higher = more signal, called active from +8 up or from −8 down
The molecules listed here are annotated with their z-score.
metric: z-score

CC(C)CNC(=O)[C@@]1(c2ccc([N+](=O)[O-])cc2)CC(=O)N(CC23CC4CC(CC(C4)C2)C3)[C@@H]1c1ccc(CO)cc1I	-0.998
CCCCCCCCCCC(O)C1C=CC2C(=O)N(Cc3ccccc3)C(=O)C2N1n1cnnc1 (configuration not stated)	-1.55
C=CCOC(=O)[C@@H]1[C@H]2C(=O)O[C@H](c3ccccc3)[C@H](c3ccccc3)N2[C@H](c2ccc(OCCOC(=O)[C@@H]3C[C@@H]4C(=O)N[C@@H](Cc5ccccc5)C(=O)N4[C@@H]3c3cccc(OCCO)c3)cc2)[C@@]12C(=O)Nc1ccc(I)cc12	0.264
CN1C(=O)C2C=CC(C(O)c3ccccn3)N(Nc3ccccc3)C2C1=O (configuration not stated)	-0.434
COC(=O)C(CC#Cc1ccc2c(c1)[C@]1(C(=O)N2)[C@H](C(=O)NC[C@H](O)c2ccccc2)[C@H]2C(=O)O[C@H](c3ccccc3)[C@H](c3ccccc3)N2[C@@H]1c1ccc(OCCO)cc1)C(=O)OC	-0.658
O=C/C=C/c1ccc(Cl)cc1	0.73
CCCNC(=O)[C@@H]1c2ccccc2C(=O)N(Cc2ccccc2)[C@H]1c1ccc(CO)cc1	-0.731
